This collection of values is drawn from patent US8697911B2.

The reader will find reported pIC50 values listed item by item below.
Molecular target: ROCKII (1-543) (Homo sapiens (Human), UniProt O75116)
Sequence (O75116 1-543): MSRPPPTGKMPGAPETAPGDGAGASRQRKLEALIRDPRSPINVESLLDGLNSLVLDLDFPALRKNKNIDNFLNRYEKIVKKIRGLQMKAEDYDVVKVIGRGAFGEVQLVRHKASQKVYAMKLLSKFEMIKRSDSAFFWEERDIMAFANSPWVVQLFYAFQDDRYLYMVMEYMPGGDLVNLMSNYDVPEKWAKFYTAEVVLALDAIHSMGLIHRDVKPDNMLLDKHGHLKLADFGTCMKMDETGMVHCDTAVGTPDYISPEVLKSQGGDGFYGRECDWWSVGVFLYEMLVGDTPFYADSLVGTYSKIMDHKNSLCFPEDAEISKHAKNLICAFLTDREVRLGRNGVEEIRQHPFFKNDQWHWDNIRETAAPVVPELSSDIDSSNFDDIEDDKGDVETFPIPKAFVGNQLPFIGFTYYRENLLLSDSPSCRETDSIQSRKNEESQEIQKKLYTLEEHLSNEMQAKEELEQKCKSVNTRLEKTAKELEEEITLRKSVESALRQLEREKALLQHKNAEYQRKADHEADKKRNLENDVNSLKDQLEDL
Assay: Luciferin-Luciferase Assay (Assay 1)
Format: biochemical
Conditions: luciferin-luciferase residual ATP; 750 nM ATP, 7.5 nM kinase
pIC50: −log10 of the molar value.

compound	pIC50
CN1CCc2ccc(NC(=O)c3cccc(CNC(=O)c4ccc(-c5ccn[nH]5)cc4)c3)cc2C1 [compound 179]	8.18
CN1CCc2ccc(NC(=O)c3cccc(CNC(=O)c4ccc(-c5ccncc5)cc4)c3)cc2C1 [compound 129]	8.89
Cc1nc(-c2ccncc2)sc1C(=O)NCc1cccc(C(=O)Nc2nc3c(s2)CN(C)CC3)c1 [compound 76]	8.92
Cc1c(C(=O)NCc2cccc(C(=O)Nc3nc4c(s3)C[C@@H](N3CCOCC3)CC4)c2)nnn1-c1nonc1N [compound 152]	8.72
CN1CCc2ccc(NC(=O)c3cccc(CNC(=O)c4cc5cc(C#N)ccc5n4C)c3)cc2C1 [compound 94]	8.09
N[C@@H]1CCc2nc(NC(=O)c3cccc(CNC(=O)c4ccc(-c5csnn5)cc4)c3)sc2C1 [compound 24]	7.84
N[C@H]1CCc2nc(NC(=O)c3cccc(CNC(=O)c4cccc(-c5cn[nH]c5)c4)c3)sc2C1 [compound 30]	9.14
